These measurements were taken from PubChem BioAssay AID485346.

# tested.target: Protein Mdm4 (Homo sapiens) + E3 ubiquitin-protein ligase Mdm2 (Homo sapiens) (UniProt O15151+Q00987)
# Sequence (O15151 whole entry, looked up): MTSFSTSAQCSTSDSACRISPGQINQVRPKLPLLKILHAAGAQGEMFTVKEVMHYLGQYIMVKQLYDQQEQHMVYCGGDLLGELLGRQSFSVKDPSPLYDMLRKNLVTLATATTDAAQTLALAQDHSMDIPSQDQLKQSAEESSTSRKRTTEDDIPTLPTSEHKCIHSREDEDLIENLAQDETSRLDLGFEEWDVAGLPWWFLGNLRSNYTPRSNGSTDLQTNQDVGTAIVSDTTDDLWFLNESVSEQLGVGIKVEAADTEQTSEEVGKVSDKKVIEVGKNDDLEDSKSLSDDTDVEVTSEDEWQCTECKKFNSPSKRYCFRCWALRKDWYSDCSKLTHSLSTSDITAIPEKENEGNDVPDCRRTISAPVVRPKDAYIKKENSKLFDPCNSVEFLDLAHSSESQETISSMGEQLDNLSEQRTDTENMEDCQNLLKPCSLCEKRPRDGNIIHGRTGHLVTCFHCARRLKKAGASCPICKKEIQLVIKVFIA
# Sequence (Q00987 whole entry, looked up): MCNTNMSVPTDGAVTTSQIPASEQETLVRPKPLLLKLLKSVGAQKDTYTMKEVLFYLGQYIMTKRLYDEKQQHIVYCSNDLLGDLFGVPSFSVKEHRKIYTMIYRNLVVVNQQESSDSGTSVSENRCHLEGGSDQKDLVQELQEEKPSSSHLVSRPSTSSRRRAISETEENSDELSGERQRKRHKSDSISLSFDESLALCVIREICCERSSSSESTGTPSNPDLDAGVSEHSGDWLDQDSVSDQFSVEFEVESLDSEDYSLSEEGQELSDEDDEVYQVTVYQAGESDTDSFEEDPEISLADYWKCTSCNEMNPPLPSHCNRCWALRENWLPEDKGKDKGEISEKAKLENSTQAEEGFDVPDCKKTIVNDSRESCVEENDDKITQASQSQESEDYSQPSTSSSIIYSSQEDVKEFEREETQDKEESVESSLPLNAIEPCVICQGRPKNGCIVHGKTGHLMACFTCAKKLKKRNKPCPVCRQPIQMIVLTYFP
# experiment.description: inhibitors of human Mdm2-MdmX association, primary screen, cell-based, luminescence, split luciferase, SaOS-2, uHTS (AID 485346)
# test.settings: SaOS-2 split-luciferase Mdm2/MdmX complementation, at 8 µM, stronger effect = higher value
About 10,000 (3%) of roughly 330,000 compounds were called active. The sample as a whole holds a higher share of actives than the screen did.
measured.endpoint: inhibition (%)
Numeric only. Scale: %

What measured inhibition goes with O=C(NCCN1CCOCC1)c1ccc(/C=C2\Sc3ccccc3N(Cc3ccc(F)cc3)C2=O)cc1 ?
62.4

What measured inhibition goes with CCCCC(=O)N1CC2(C)CN(C(=O)CCCC)CC(C)(C1)C2=O ?
-4.56

What measured inhibition goes with Nc1ccc(C(=O)Nc2ccccc2N)cc1 ?
54.8

What measured inhibition goes with O=C(NCCN1CCOCC1)/C(=C/c1ccc(F)cc1)NC(=O)c1ccccc1 ?
-6.74

What measured inhibition goes with O=C(/C=C/c1ccc(Cl)cc1)Nc1ccc(Br)cn1 ?
77.5

What measured inhibition goes with N/C(=N\OC(=O)/C=C/c1ccccc1)c1ccc(Br)cc1 ?
13.5

What measured inhibition goes with CCN(CC(=O)NCCCN1CCOCC1)S(=O)(=O)c1cc(Cl)ccc1Cl ?
20.3

What measured inhibition goes with COc1ccc2[nH]c(C(=O)N/N=C/c3cc(OC)c(OC)c(OC)c3)cc2c1 ?
11.4

What measured inhibition goes with COc1ccc(C(=O)Nc2nc(-c3ccc(OC)cc3)c(-c3ccc([N+](=O)[O-])cc3)s2)cc1 ?
13.4

What measured inhibition goes with COc1ccc(S(=O)(=O)N2CCCC(C(=O)Nc3ccc(NC(=O)c4ccccn4)cc3)C2)cc1 (configuration not stated) ?
-15.5

What measured inhibition goes with CCc1ccc(OCC(O)CN2CCN(CCO)CC2)cc1 (configuration not stated) ?
19.2

What measured inhibition goes with CCCCCCC12CCC(C(=O)O)(CC1)CC2 ?
11.2

What measured inhibition goes with COc1cc(/C=N/NC(=O)Nc2ccccc2)ccc1OCCOc1ccccc1C ?
63.8

What measured inhibition goes with Cn1nccc1NS(=O)(=O)c1ccc(F)cc1 ?
-11.5

What measured inhibition goes with CC(=O)Nc1ccc(NC(=O)C2CCCN(S(=O)(=O)c3ccc(Cl)cc3)C2)cc1 (configuration not stated) ?
55.6

What measured inhibition goes with O=C(CCC(=O)N1CCCC1)Nc1ccc([N+](=O)[O-])cc1 ?
8.85

What measured inhibition goes with CCOC(=O)c1c(C)oc2cc(Sc3ccccc3)c(O)c(O)c12 ?
34.7

What measured inhibition goes with CCOC(=O)C(C)n1nc(-c2ccccc2)c2ccccc2c1=O (configuration not stated) ?
7.24

What measured inhibition goes with COCn1c(C(O)c2ccccc2)cc2ccccc21 (configuration not stated) ?
-4.01

What measured inhibition goes with Fc1ccccc1/C=C1\CCCC2=C1Nc1ncnn1C2c1ccccc1F (configuration not stated) ?
98.8

What measured inhibition goes with C[C@@]12C(=O)N(c3cccc(Br)c3)C(=O)N1[C@H](c1ccc(Cl)cc1)[C@@H]1C(=O)N(C3CCCCC3)C(=O)[C@@H]12 ?
49.2

What measured inhibition goes with O=S(=O)(Nc1cccc(-c2ccc(N3CCOCC3)nn2)c1)c1ccc(Cl)c(Cl)c1 ?
-21.1

What measured inhibition goes with CCC12CN3CC(CC)(CN(C1)C31C(=O)N(C)c3ccc(C)cc31)C2=O (configuration not stated) ?
5.2

What measured inhibition goes with CC(C)(C)OC(=O)C[C@H]1C/C=C\C[C@@H](CC(=O)N[C@H](CO)Cc2ccccc2)C(=O)NC[C@@H](c2ccccc2)OC1=O ?
9.47

What measured inhibition goes with COc1cc(/C=N/NC(=O)c2ccoc2C)ccc1OCCN1CCCCC1 ?
7.93

What measured inhibition goes with CC(C)(C)OC(=O)C[C@@H]1C/C=C\C[C@@H](CC(=O)N[C@H](CO)Cc2ccccc2)C(=O)NC[C@@H](c2ccccc2)OC1=O ?
13.2

What measured inhibition goes with CCNC(=O)COc1cc(C)c(Br)c(C)c1 ?
15.7

What measured inhibition goes with CC1(C)CC(=O)C=C(c2cccc3c2Oc2ccccc2S3)C1 ?
2.33

What measured inhibition goes with CSc1nc(N)c(C#N)c(-c2ccccc2Cl)c1C#N ?
58.4

What measured inhibition goes with CCCN1CCN(C(=O)CCCNC(=O)c2ccc(Cl)cc2)CC1 ?
-0.622

What measured inhibition goes with COC1=CCC2([N+](=O)[O-])CN(CC(=O)O)CC1([N+](=O)[O-])C2 (configuration not stated) ?
4.95

What measured inhibition goes with Nc1ccc(C(=O)NCc2ccccc2)cc1 ?
3.98

What measured inhibition goes with Cc1cc(=O)cc(C)n1-c1ccc(Cl)c(Cl)c1 ?
15.1

What measured inhibition goes with CC(=O)Nc1ccccc1NC(=O)c1cc(C)cc(C)c1 ?
-1.21

What measured inhibition goes with Cc1cc(NC(=O)CCC(=O)N(CC(=O)NCC2CCCO2)c2ccccc2C)no1 (configuration not stated) ?
11.6

What measured inhibition goes with CCCCCCCCn1c2c(c(=N)c3c1CCC3)CCCC2 ?
87

What measured inhibition goes with COC(=O)c1ccc(COc2ccc(/C=N/NC(=O)C(=O)Nc3ccc(OC)cc3)cc2OC)o1 ?
36.6

What measured inhibition goes with COc1cccc(/C=C(/CC(=O)Nc2ccc(N3CCOCC3)cc2)c2nc3ccccc3s2)c1 ?
18.2

What measured inhibition goes with CC(=O)NC12CC3CC(C1)CC(C(=O)N1CCN(S(=O)(=O)c4cccs4)CC1)(C3)C2 ?
14.8

What measured inhibition goes with COc1ccc(S(=O)(=O)N2CCC(C(=O)N3CCc4ccccc4C3)CC2)cc1OC ?
-18.3

What measured inhibition goes with Cc1nn(Cc2ccccc2)c(C)c1C(=O)NCCN1C(=O)S/C(=C\c2ccc(F)cc2)C1=O ?
26.7

What measured inhibition goes with CCOc1cccc(C(=O)Nc2nnc(-c3cccs3)s2)c1 ?
-36.4
